# assay_info: Inhibition of HCV NS5B deltaC21 polymerase assessed as [3H]GTP incorporation after 3 hrs by scintillation proximity assay
# Design: species or system Hepacivirus hominis
# measurement_setup: read-out: IC50
measure: IC50 (nM)

>>> experimental_value("O=C(O)c1cc2[nH]c(-c3ccc(-c4ccccc4)cc3)c(C3CCCCC3)c(=O)n2n1")
3100
>>> experimental_value("O=C(O)c1cc2[nH]c(-c3ccco3)c(C3CCCCC3)c(=O)n2n1")
290

a: O=C(N[C@H](Cc1ccc(O)cc1)C(=O)O)c1cc2[nH]c(-c3ccco3)c(C3CCCCC3)c(=O)n2n1
b: COCCc1c(-c2ccc(OCc3ccccc3)cc2)[nH]c2cc(C(=O)O)nn2c1=O
c: C=CCCc1c(-c2ccc(OCc3ccccc3)cc2)[nH]c2cc(C(=O)O)nn2c1=O
Put the items in sequence by IC50, from largest down. List the labels in the requested order.
c, b, a
(c: 6700 nM, b: 3700 nM, a: 300 nM)

====

# assay_info: Inhibition of HCV NS5B deltaC21 polymerase assessed as [3H]GTP incorporation after 3 hrs by scintillation proximity assay
# Set-up: species or system Hepacivirus hominis
# measurement_setup: read-out: IC50
pIC50: −log10 of the molar value.
measure: pIC50

# annotated cases, reported pIC50 shown
>>> experimental_value("O=C(N[C@@H](Cc1ccc(O)cc1)C(=O)O)c1cc2[nH]c(-c3ccco3)c(C3CCCCC3)c(=O)n2n1")
7.15
>>> experimental_value("O=C(O)c1cc2[nH]c(-c3ccc(OCc4ccccc4)cc3)c(CC3CCCO3)c(=O)n2n1 (stereo unspecified)")
5.00
>>> experimental_value("O=C(N[C@@H](Cc1c[nH]c2ccccc12)C(=O)O)c1cc2[nH]c(-c3ccco3)c(C3CCCCC3)c(=O)n2n1")
7.30

I: O=C(N[C@@H](Cc1ccc(O)cc1)C(=O)O)c1cc2[nH]c(-c3cccc(F)c3)c(C3CCCCC3)c(=O)n2n1
II: O=C(N[C@@H](Cc1c[nH]c2ccccc12)C(=O)O)c1cc2[nH]c(-c3cccc(F)c3)c(C3CCCCC3)c(=O)n2n1
For I and II , which recorded pIC50 is lower? Your choice should be expressed through its label.
I
(I: 6.17, II: 6.64)

P: CC(C)=CCCc1c(-c2ccc(OCc3ccccc3)cc2)[nH]c2cc(C(=O)O)nn2c1=O
Q: O=C(O)c1cc2[nH]c(-c3cccs3)c(C3CCCCC3)c(=O)n2n1
R: O=C(NS(=O)(=O)Cc1ccccc1)c1cc2[nH]c(-c3ccco3)c(C3CCCCC3)c(=O)n2n1
Put the compounds in ascending order of pIC50. Answer format: the labels, in the requested order.
P, Q, R
(P: 5.46, Q: 5.96, R: 6.74)

P: O=C(O)c1cc2[nH]c(-c3ccc(OCc4ccccc4)cc3)c(CCCc3ccccc3)c(=O)n2n1
Q: O=C(N[C@@H](Cc1c[nH]cn1)C(=O)O)c1cc2[nH]c(-c3ccco3)c(C3CCCCC3)c(=O)n2n1
Given P and Q , report the one with the higher recorded pIC50. Refer to your chosen item by its label in the answer.
Q

====

# assay_info: Inhibition of HCV NS5B deltaC55 polymerase assessed as [3H]GTP incorporation after 50 min by scintillation proximity assay
# Set-up: species or system Hepacivirus hominis
pIC50: −log10 of the molar value.
measure: pIC50

I: COCCc1c(-c2ccc(OCc3ccccc3)cc2)[nH]c2cc(C(=O)O)nn2c1=O
II: O=C(O)c1cc2[nH]c(-c3ccc(OCc4ccccc4)cc3)c(C3CCCCC3)c(=O)n2n1
Hi, I'm comparing two records. Which one has the lower pIC50, I or II ? Identify your pick by its label.
I
(I: 4.89, II: 5.82)

a: O=C(O)c1cc2[nH]c(-c3ccco3)c(C3CCCCC3)c(=O)n2n1
b: COc1cccc(Oc2ccc(-c3[nH]c4cc(C(=O)O)nn4c(=O)c3C3CCCCC3)cc2)c1
Would you kindly point out which of a and b has the smaller pIC50 figure? // output: label of the selected item
a
(a: 5.55, b: 6.05)

# credit: ChEMBL document CHEMBL1155986
